All figures here come from patent US8722616B2.

Below is a list of entries, each paired with its recorded CC50 value.
tested on: CEM-SS cells; assay: Cytotoxicity in the CPE assay (XTT, 50% reduction in cell viability); conditions: read-out: TC50; Table 3; CEM-SS cells
No end group written: not given here.

Some solved cases for reference:
residue_string="GLRRLLGRLLRRLGRLLLR [GLR-19]" target_system="CEM-SS cells" result="25.7 µM"
residue_string="ILGPVLGLVSRTLRRVLGIL [Maximin H5r3]" target_system="CEM-SS cells" result="8.7 µM"
residue_string="GLRSKIWLWVLLMIWQESNKFKKM [DRS S9, reference compound]" target_system="CEM-SS cells" result="> 32.9 µM"
residue_string="ILGPVLGLVSDTLDDVLGIL [Maximin H5, reference compound]" target_system="CEM-SS cells" result="> 49.4 µM"

Consider now this further sequence.
Looking for the measured CC50 of GLRSRIWLWVLLMIWQESNRFKRM [DRS S9r3] , can you help?
> 32.1 µM
